Molecular target: T1, human mesothelin (recombinant, soluble, purified; 40 kDa C-terminal polypeptide of the mesothelin precursor) (human, UniProt Q13421 296-598, limits assumed)
T1 construct: also called soluble mesothelin
T1 sequence (Q13421 other isoform, or with tags, fused parts or gaps limits assumed): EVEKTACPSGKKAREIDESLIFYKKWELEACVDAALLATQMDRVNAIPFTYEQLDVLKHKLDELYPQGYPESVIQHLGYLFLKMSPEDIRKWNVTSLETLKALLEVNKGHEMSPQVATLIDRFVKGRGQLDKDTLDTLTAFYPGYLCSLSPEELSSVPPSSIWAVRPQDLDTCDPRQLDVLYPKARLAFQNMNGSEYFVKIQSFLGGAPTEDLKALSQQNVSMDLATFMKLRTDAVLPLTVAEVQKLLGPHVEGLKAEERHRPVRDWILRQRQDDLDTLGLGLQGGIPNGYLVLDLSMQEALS
Test: SPR (Biacore 3000), Fab on covalently immobilized human mesothelin
observation type: Kd (nM)
Numbers only, in nM.

Worked cases, answers included:
{"binder": "MOR06657 Fab (Fab, V domains shown, Purified Fab) VH: QVQLVQSGAEVKKPGSSVKVSCKASGGTFSSYYFSWVRQAPGQGLEWMGGIIPKFGSANYAQKFQGRVTITADESTSTAYMELSSLRSEDTAVYYCARRTSMDYWGQGTLVTVSS VL: DIALTQPASVSGSPGQSITISCTGTSSDVGGYNYVSWYQQHPGKAPKLMIYSVSKRPSGVSNRFSGSKSGNTASLTISGLQAEDEADYYCATWDHSQMGKVFGGGTKLTVLG", "Kd / nM": 0.95}
{"binder": "MF-226 Fab (Fab, V domains shown, Purified Fab) VH: QVELVQSGAEVKKPGASVKVSCKASGYTFTGNYINWVRQAPGQGLEWMGIINPHGGDTKYAQKFQGRVTMTRDTSISTAYMELSSLRSEDTAVYYCARWHHGTWIFDYWGQGTLVTVSS VL: DIVLTQPPSVSGAPGQRVTISCSGSSSNIGSNYVSWYQQLPGTAPKLLIYNDNQRPSGVPDRFSGSKSGTSASLAITGLQSEDEADYYCSTYDRRTFSVFGGGTKLTVLG", "Kd / nM": 58}
{"binder": "MOR06638 Fab (Fab, V domains shown, Purified Fab) VH: QVQLVQSGAEVKKPGASVKVSCKASGYTFTGNYINWVRQAPGQGLEWMGIINPHGGDTKYAQKFQGRVTMTRDTSISTAYMELSSLRSEDTAVYYCARWHHGTWIFDYWGQGTLVTVSS VL: DIVLTQPPSVSGAPGQRVTISCSGSSSNIGSNYVSWYQQLPGTAPKLLIYNDNQRPSGVPDRFSGSKSGTSASLAITGLQSEDEADYYCSSWDRADGSYVFGGGTKLTVLG", "Kd / nM": 16}

Now, please, on to the next binder.
Exercise: Which measured Kd value corresponds to MF-A Fab (Fab, V domains shown, Purified Fab) VH: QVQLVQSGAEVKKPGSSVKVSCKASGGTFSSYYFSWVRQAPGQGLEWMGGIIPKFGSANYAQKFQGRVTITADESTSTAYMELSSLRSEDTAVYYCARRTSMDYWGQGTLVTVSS VL: DIALTQPASVSGSPGQSITISCTGTSSDVGGYNYVSWYQQHPGKAPKLMIYSVSKRPSGVSNRFSGSKSGNTASLTISGLQAEDEADYYCGAWAHMSLGKVFGGGTKLTVLG ?
Key: 19
